- Tested on: xanthine oxidase (Bos taurus, UniProt P80457)
- Sequence (P80457 2-1332): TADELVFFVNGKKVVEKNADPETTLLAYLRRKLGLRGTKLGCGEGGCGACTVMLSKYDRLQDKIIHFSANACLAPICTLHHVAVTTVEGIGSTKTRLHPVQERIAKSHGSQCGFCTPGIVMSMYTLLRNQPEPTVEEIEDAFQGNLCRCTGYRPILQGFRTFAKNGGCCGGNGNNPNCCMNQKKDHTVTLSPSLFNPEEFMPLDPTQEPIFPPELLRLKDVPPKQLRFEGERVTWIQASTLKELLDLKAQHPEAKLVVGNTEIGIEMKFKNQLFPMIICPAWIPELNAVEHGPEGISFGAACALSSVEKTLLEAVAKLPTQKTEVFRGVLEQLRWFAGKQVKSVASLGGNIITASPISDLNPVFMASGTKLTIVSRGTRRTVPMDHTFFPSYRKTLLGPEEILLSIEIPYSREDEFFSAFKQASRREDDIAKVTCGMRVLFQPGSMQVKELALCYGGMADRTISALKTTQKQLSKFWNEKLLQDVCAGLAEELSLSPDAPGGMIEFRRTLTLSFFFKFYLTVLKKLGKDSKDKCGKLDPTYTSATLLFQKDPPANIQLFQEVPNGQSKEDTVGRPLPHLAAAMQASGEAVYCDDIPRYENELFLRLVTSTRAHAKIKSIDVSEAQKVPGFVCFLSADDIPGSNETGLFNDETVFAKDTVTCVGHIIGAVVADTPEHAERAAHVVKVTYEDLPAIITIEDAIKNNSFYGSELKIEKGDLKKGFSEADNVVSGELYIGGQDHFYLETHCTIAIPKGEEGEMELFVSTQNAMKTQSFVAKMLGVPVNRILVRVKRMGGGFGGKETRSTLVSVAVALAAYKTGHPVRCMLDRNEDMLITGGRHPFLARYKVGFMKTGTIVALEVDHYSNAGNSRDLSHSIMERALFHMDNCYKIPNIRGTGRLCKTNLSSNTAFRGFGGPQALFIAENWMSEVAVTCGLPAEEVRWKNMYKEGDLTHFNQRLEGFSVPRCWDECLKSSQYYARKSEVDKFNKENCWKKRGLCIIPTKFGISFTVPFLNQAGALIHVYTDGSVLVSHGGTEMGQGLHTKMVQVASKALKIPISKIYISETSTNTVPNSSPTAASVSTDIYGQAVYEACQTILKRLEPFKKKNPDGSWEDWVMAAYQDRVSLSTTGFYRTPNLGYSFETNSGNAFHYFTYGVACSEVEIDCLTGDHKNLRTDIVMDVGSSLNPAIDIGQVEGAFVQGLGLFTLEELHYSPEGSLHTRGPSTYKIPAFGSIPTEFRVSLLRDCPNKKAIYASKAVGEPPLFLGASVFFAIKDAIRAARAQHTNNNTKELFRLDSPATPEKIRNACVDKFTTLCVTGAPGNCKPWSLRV
- Experimental details: Fluorescence-quenching binding to xanthine oxidase
- Experimental context: double-logarithm formula, 25 °C
Quantity measured: Affinity n (number of binding sites per enzyme molecule)

Example compounds with recorded Affinity n (number of binding sites per enzyme molecule):
Name the recorded Affinity n (number of binding sites per enzyme molecule) of the compound listed here: O=c1c(-c2ccc(O)cc2)coc2c([C@@H]3O[C@H](CO)[C@@H](O)[C@H](O)[C@H]3O)c(O)ccc12 [Puerarin] 1.1801

For the compound O=c1cc(-c2ccccc2)oc2ccccc12 [Flavone] , give its measured Affinity n (number of binding sites per enzyme molecule) value. 1.3695

1 = O=c1cc(-c2ccccc2)oc2cc(O)c(O)c(O)c12 [Baicalein]
2 = O=c1cc(-c2ccc(O)cc2)oc2cc(O)cc(O)c12 [Apigenin]
3 = COc1ccc(-c2cc(=O)c3c(OC)c(OC)c(OC)c(OC)c3o2)cc1 [Tangeretin]
Sequence the entries by Affinity n (number of binding sites per enzyme molecule), beginning with the highest number. To answer, arrange all of the labels according to the requested order. 1, 3, 2
